System: HEK-293T cells
assay-remarks: Cytotoxicity in HEK-293T cells (Cell Titer Glo)
Assay type: cell-based, human
cond: Homo sapiens, cytotoxicity, 24 hours with compound, read-out: IC50 HEK-293
The reader will find reported IC50 values listed item by item below.
The response must be a number in µg/mL with no trailing unit.

compound | target-system | unit-of-measure | IC50
COc1ccc2cc(/C=N/NC(=O)c3cc(O)c(O)c(O)c3)ccc2c1 | HEK-293T cells | µg/mL | 1

Task: Notebook entry, HEK-293T cells assay: IC50 of `COc1ccc2ccccc2c1/C=N/NC(=O)c1cc(O)c(O)c(O)c1` = ?
Result: 8.6

Task: Another compound to look at: `C#CCOc1ccc2ccccc2c1/C=N/NC(=O)c1cc(O)c(O)c(O)c1`
Result: 2.7

Task: Another compound to look at: `CCN(CC)Cc1ccc(-c2ccc(-c3nc(-c4cc(O)c(O)c(O)c4)cs3)cc2)cc1`
Result: 24.8

Task: Another compound to look at: `O=C(N/N=C/c1cncnc1)c1cc(O)c(O)c(O)c1`
Result: 39.4

Task: Another compound to look at: `CN(C)c1ccc(/C=N/NC(=O)c2cc(O)c(O)c(O)c2)cc1`
Result: 9.8

Task: Another compound to look at: `C[C@H](NC(=O)c1cc(O)c(O)c(O)c1)c1cccc2ccccc12`
Result: 4.6
